Items are presented alongside their recorded pH 2 Stability 24 h % AN.
# procedure text: Stability in pH2 buffered solution
# Assay type: physicochemical
# run conditions: pH2 phosphate buffer, 40° C., 24 h; Table N2
observable: pH 2 Stability 24 h % AN (% AN)

In [3]: df
Out[3]:
                                    compound                observable  observed
 0  CCOC(=O)[C@H](C)OC(=O)OC[C@H]1O[C@@](C#N)(c2ccc3c(N)ncnn23)[C@H](O)[C@@H]1O [Compound 97]  pH 2 Stability 24 h % AN        98
 1  CC1(OC(=O)OC[C@H]2O[C@@](C#N)(c3ccc4c(N)ncnn34)[C@H](O)[C@@H]2O)CCCCC1 [Compound 47]  pH 2 Stability 24 h % AN         1
 2  CCC1O[C@H]2[C@@H](O1)[C@](C#N)(c1ccc3c(N)ncnn13)O[C@@H]2COC(=O)OC(C)C (some centres unmarked) [Compound 133]  pH 2 Stability 24 h % AN        95
 3  CCC(C)(C)OC(=O)OC[C@H]1O[C@@](C#N)(c2ccc3c(N)ncnn23)[C@H](OC(=O)OC(C)(C)CC)[C@@H]1OC(=O)OC(C)(C)CC [Compound 60]  pH 2 Stability 24 h % AN         0
 4  CCOC(=O)OC[C@H]1O[C@@](C#N)(c2ccc3c(N)ncnn23)[C@H](OC(=O)OCC)[C@@H]1OC(=O)OCC [Compound 106]  pH 2 Stability 24 h % AN       100
 5  CC(C)OC(=O)Nc1ncnn2c([C@]3(C#N)O[C@H](COC(=O)OC(C)(C)C)[C@@H](O)[C@H]3O)ccc12 [Compound 63]  pH 2 Stability 24 h % AN         3
 6  CC(C)OC(=O)Nc1ncnn2c([C@]3(C#N)O[C@H](COC(=O)OC(C)C)[C@@H](OC(=O)OC(C)C)[C@H]3O)ccc12 [Compound 62]  pH 2 Stability 24 h % AN        61
 7  CC(C)(OC(=O)OC[C@H]1O[C@@](C#N)(c2ccc3c(N)ncnn23)[C@H](O)[C@@H]1O)C(F)F [Compound 76]  pH 2 Stability 24 h % AN        92
 8  CC(C)OC(=O)Nc1ncnn2c([C@]3(C#N)O[C@H](COC(=O)OC(C)C)[C@@H](O)[C@H]3O)ccc12 [Compound 137]  pH 2 Stability 24 h % AN        80
 9  CCOC(=O)OC[C@H]1O[C@@](C#N)(c2ccc3c(N)ncnn23)[C@H](OC(C)=O)[C@@H]1OC(C)=O [Compound 129]  pH 2 Stability 24 h % AN        89
10  N#C[C@@]1(c2ccc3c(N)ncnn23)O[C@H](COC(=O)OCc2ccccc2)[C@@H](O)[C@H]1O [Compound 13]  pH 2 Stability 24 h % AN        98
11  CC(=O)O[C@H]1[C@@H](OC(C)=O)[C@](C#N)(c2ccc3c(N)ncnn23)O[C@@H]1COC(=O)OC(C)(C)c1ccncc1 [Compound 79]  pH 2 Stability 24 h % AN        88
12  CC1(C)[C@@H]2CC[C@@]1(C)[C@@H](OC(=O)OC[C@H]1O[C@@](C#N)(c3ccc4c(N)ncnn34)[C@H](O)[C@@H]1O)C2 [Compound 51]  pH 2 Stability 24 h % AN        98
13  CCOC(=O)OC[C@H]1O[C@@](C#N)(c2ccc3c(N)ncnn23)[C@H](O)[C@@H]1O [Compound 6]  pH 2 Stability 24 h % AN       100
14  CC(C)(OC(=O)OC[C@H]1O[C@@](C#N)(c2ccc3c(N)ncnn23)[C@H](O)[C@@H]1O)c1ccncc1 [Compound 49]  pH 2 Stability 24 h % AN        97
15  COC(=O)OC[C@H]1O[C@@](C#N)(c2ccc3c(N)ncnn23)[C@H](OC(C)=O)[C@@H]1OC(C)=O [Compound 128]  pH 2 Stability 24 h % AN        89
16  COCC(C)(C)OC(=O)OC[C@H]1O[C@@](C#N)(c2ccc3c(N)ncnn23)[C@H](O)[C@@H]1O [Compound 96]  pH 2 Stability 24 h % AN        96
17  CC(C)OC(=O)[C@H]([C@@H](C)OC(=O)OC[C@H]1O[C@@](C#N)(c2ccc3c(N)ncnn23)[C@H](O)[C@@H]1O)N(C)C [Compound 145]  pH 2 Stability 24 h % AN        93
18  CC(C)OC(=O)OC[C@H]1O[C@@](C#N)(c2ccc3c(NC(=O)C(C)C)ncnn23)[C@H](OC(=O)C(C)C)[C@@H]1OC(=O)C(C)C [Compound 75]  pH 2 Stability 24 h % AN         0
19  CCC(CC)COC(=O)OC[C@H]1O[C@@](C#N)(c2ccc3c(N)ncnn23)[C@H](O)[C@@H]1O [Compound 15]  pH 2 Stability 24 h % AN        98
20  CC(C)OC(=O)OC[C@H]1O[C@@](C#N)(c2ccc3c(N)ncnn23)[C@H](O)[C@@H]1O [Compound 4]  pH 2 Stability 24 h % AN        98
21  CC(C)OC(=O)OC[C@H]1O[C@@](C#N)(c2ccc3c(N)ncnn23)[C@H](OC(=O)C(C)C)[C@@H]1OC(=O)C(C)C [Compound 59]  pH 2 Stability 24 h % AN        98
22  CC(C)C(=O)O[C@H]1[C@@H](OC(=O)C(C)C)[C@](C#N)(c2ccc3c(N)ncnn23)O[C@@H]1COC(=O)OC(C)(C)C [Compound 58]  pH 2 Stability 24 h % AN         2
23  CC(C)(C)OC(=O)OC[C@H]1O[C@@](C#N)(c2ccc3c(N)ncnn23)[C@H](O)[C@@H]1O [Compound 46]  pH 2 Stability 24 h % AN         4
24  COC(=O)OC[C@H]1O[C@@](C#N)(c2ccc3c(N)ncnn23)[C@H](OC(=O)OC)[C@@H]1OC(=O)OC [Compound 93]  pH 2 Stability 24 h % AN        94
25  N#C[C@@]1(c2ccc3c(N)ncnn23)O[C@H](COC(=O)OC2CCCCCCC2)[C@@H](O)[C@H]1O [Compound 14]  pH 2 Stability 24 h % AN        97
